test: Half life in Sprague-Dawley rat administered as crystalline form; type: ADME, organism-based; details: in vivo
measurement_name: half-life (h)
Your answer should be a plain number; it is taken to be in h.

Q) Using known records, supply half-life for "CNC(=O)c1ccc(C)c(-n2c(C)cc(OCc3ccc(F)cc3F)c(Br)c2=O)c1"
A) 2.6

---

experiment: Oral bioavailability in Beagle dog administered as solution; format: ADME, organism-based, Canis lupus familiaris; details: in vivo
measurement_name: bioavailability (%)
Write the number in % without appending the unit.

Q) Hello, please tell me recorded bioavailability for this one: "CNC(=O)c1ccc(C)c(-n2c(C)cc(OCc3ccc(F)cc3F)c(Br)c2=O)c1"
A) 59.6

---

Please provide measured pIC50 for the entries that follow.
biological target: Mitogen-activated protein kinase 14 (Homo sapiens); assay: Inhibition of p38alpha assessed as phosphorylation FITC-labeled Hsp27 after 60 mins by fluorescence based cascade assay
Sequence (Q16539 whole entry): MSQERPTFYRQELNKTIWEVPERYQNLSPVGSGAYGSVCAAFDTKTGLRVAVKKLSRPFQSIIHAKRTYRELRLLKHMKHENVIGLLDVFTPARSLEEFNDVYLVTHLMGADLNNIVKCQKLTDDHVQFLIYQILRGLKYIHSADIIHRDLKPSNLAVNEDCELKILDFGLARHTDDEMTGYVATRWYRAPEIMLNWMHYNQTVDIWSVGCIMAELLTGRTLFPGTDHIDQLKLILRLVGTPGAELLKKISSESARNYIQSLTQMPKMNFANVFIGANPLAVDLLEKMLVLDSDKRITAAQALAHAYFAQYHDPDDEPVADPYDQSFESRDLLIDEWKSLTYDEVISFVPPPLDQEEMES
# pIC50: negative log10 of molar concentration; output just the value

Q) Report measured pIC50; entry is "CNC(=O)c1ccc(OC)c(-n2c(C)cc(OCc3ccc(F)cc3F)c(Br)c2=O)c1"
A) 7.68

Q) Name the recorded pIC50 of the compound listed here: "CNC(=O)c1ccc(CO)c(-n2c(C)cc(OCc3ccc(F)cc3F)c(Br)c2=O)c1"
A) 6.49

Q) For the compound "CNC(=O)c1ccc(Cl)c(-n2c(C)cc(OCc3ccc(F)cc3F)c(Br)c2=O)c1" , report pIC50.
A) 8.52

Q) Annotate the compound "Cc1ccc(C(N)=O)cc1-n1c(C)cc(OCc2ccc(F)cc2F)c(Br)c1=O" with its measured pIC50.
A) 8.70

Q) Annotate the compound "Cc1ccc(C(=O)N(C)C)cc1-n1c(C)cc(OCc2ccc(F)cc2F)c(Br)c1=O" with its measured pIC50.
A) 8.02

Q) Look up pIC50 of "CNC(=O)c1ccc(-n2c(C)cc(OCc3ccc(F)cc3F)c(Br)c2=O)c(C)c1" and report it.
A) 7.47

Q) Give pIC50 for the following compound: "CNC(=O)c1cccc(-n2c(C)cc(OCc3ccc(F)cc3F)c(Br)c2=O)c1C"
A) 7.31

Q) Supply pIC50 value. Item: "CNC(=O)c1ccc(F)c(-n2c(C)cc(OCc3ccc(F)cc3F)c(Br)c2=O)c1"
A) 8.07

Q) Consider the compound "CNC(=O)c1ccc(C)c(-n2c(CO)cc(OCc3ccc(F)cc3F)c(Br)c2=O)c1" . State its measured pIC50.
A) 8.40

---

test: Metabolic stability in rat liver microsomes assessed as compound remaining at 2 uM after 45 mins by LC/MS analysis in presence of NADPH; format: ADME, Microsome; settings: liver microsomes, read-out: Stability
Assign remaining at 0.75 h, 2 µM to each entry below.
Hi! Could you send only the number? It should be in %, unit omitted.

Q) Tell me remaining at 0.75 h, 2 µM reported for "Cc1ccc(C(N)=O)cc1-n1c(C)cc(OCc2ccc(F)cc2F)c(Br)c1=O"
A) 100

Q) Supply recorded remaining at 0.75 h, 2 µM for "CNC(=O)c1ccc(C)c(-n2c(C)cc(OCc3ccc(F)cc3F)c(Br)c2=O)c1" here.
A) 95

Q) Please report the measured remaining at 0.75 h, 2 µM for "CNC(=O)c1cccc(-n2c(C)cc(OCc3ccc(F)cc3F)c(Br)c2=O)c1C"
A) 91

Q) Provide one value: measured remaining at 0.75 h, 2 µM of "Cc1ccc(C(=O)N(C)C)cc1-n1c(C)cc(OCc2ccc(F)cc2F)c(Br)c1=O"
A) 71

Q) Recall and state the measured remaining at 0.75 h, 2 µM for "CNC(=O)c1ccc(-n2c(C)cc(OCc3ccc(F)cc3F)c(Br)c2=O)c(C)c1" .
A) 86

---

assay: Oral bioavailability in Sprague-Dawley rat at 2 mg/kg administered as solution; format: ADME, organism-based; conditions: in vivo
measurement_name: bioavailability

Q) Supply bioavailability value. Item: "CNC(=O)c1ccc(C)c(-n2c(C)cc(OCc3ccc(F)cc3F)c(Br)c2=O)c1"
A) > 100%

---

assay: Oral bioavailability in Sprague-Dawley rat administered as crystalline form; type: ADME, organism-based; conditions: in vivo
measurement_name: bioavailability (%)
Reply numerically in %, unit not repeated.

Q) Look up bioavailability of "CNC(=O)c1ccc(C)c(-n2c(C)cc(OCc3ccc(F)cc3F)c(Br)c2=O)c1" and report it.
A) 35.7

---

experiment: Apparent permeability across apical to basolateral side in human Caco2 cells at 1 uM; format: ADME, cell-based; conditions: Caco-2
measurement_name: Papp A→B at 1 µM (×10⁻⁶ cm/s)
Kindly answer with a numeric value in ×10⁻⁶ cm/s, unit omitted.

Q) In one line, give reported Papp A→B at 1 µM of the entry "CNC(=O)c1ccc(C)c(-n2c(C)cc(OCc3ccc(F)cc3F)c(Br)c2=O)c1" .
A) 10

---

assay: Oral bioavailability in cynomolgus monkey administered as crystalline form; type: ADME, organism-based, Macaca fascicularis; conditions: in vivo
measurement_name: bioavailability (%)
Return type: number; implicit unit %.

Q) // Input: "CNC(=O)c1ccc(C)c(-n2c(C)cc(OCc3ccc(F)cc3F)c(Br)c2=O)c1" . Output its bioavailability only.
A) 23.2

---

test: Half life in cynomolgus monkey administered as crystalline form; type: ADME, organism-based, Macaca fascicularis; conditions: in vivo
measurement_name: half-life (h)
// return numeric value only (unit: h, not printed)

Q) Answer with the recorded half-life of "CNC(=O)c1ccc(C)c(-n2c(C)cc(OCc3ccc(F)cc3F)c(Br)c2=O)c1" only.
A) 3.93

---

assay: Apparent permeability across apical to basolateral side in human Caco2 cells at 100 uM; type: ADME, cell-based; conditions: Caco-2
measurement_name: Papp A→B at 100 µM

Q) Name the recorded Papp A→B at 100 µM of the item "CNC(=O)c1ccc(C)c(-n2c(C)cc(OCc3ccc(F)cc3F)c(Br)c2=O)c1" in your answer.
A) 25 ×10⁻⁶ cm/s

---

assay: Metabolic stability in human liver microsomes assessed as compound remaining at 2 uM after 45 mins by LC/MS analysis in presence of NADPH; format: ADME, Microsome; conditions: liver microsomes, read-out: Stability
// boundary case: remaining at 0.75 h, 2 µM equal to 90% maps to false (0); strictly smaller maps to true (1)

Q) Does "Cc1ccc(C(=O)N(C)C)cc1-n1c(C)cc(OCc2ccc(F)cc2F)c(Br)c1=O" have remaining at 0.75 h, 2 µM strictly under 90%?
A) true (1)

Q) Is 90% strictly greater than the molecule's reported remaining at 0.75 h, 2 µM? molecule: "Cc1ccc(C(N)=O)cc1-n1c(C)cc(OCc2ccc(F)cc2F)c(Br)c1=O"
A) true (1)

Q) Threshold test, remaining at 0.75 h, 2 µM < 90%: "CNC(=O)c1ccc(-n2c(C)cc(OCc3ccc(F)cc3F)c(Br)c2=O)c(C)c1"
A) false (0)

---

experiment: Oral bioavailability in Sprague-Dawley rat at 15 mg/kg administered as solution; format: ADME, organism-based; conditions: in vivo
measurement_name: bioavailability
Give your result as the value with the unit written after it.

Q) Return bioavailability for the following molecule: "CNC(=O)c1ccc(C)c(-n2c(C)cc(OCc3ccc(F)cc3F)c(Br)c2=O)c1"
A) 80.4%

---

test: Oral bioavailability in cynomolgus monkey administered as solution; format: ADME, organism-based, Macaca fascicularis; details: in vivo
measurement_name: bioavailability (%)
# unit: % | format: bare number

Q) Input CNC(=O)c1ccc(C)c(-n2c(C)cc(OCc3ccc(F)cc3F)c(Br)c2=O)c1 [PH-797804] , output reported bioavailability.
A) 36.2
